# System: erythroid progenitor cells (EPCs)
# experimental-protocol: Fetal hemoglobin (HbF) ELISA in day 7 erythroid progenitor cells;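 note: for fetal hemoglobin induction normalized to vehicle-treated cells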
# Type: cell-based, human
# cond: Homo sapiens, Erythroid progenitor cell, HbF ELISA, day 7 EPCs, 5 days; read-out: EPC ELISA (pEC50 category) (converted)
Where a name gives a salt, the structure may show the parent alone.
Reported EC50 values are given for each entry in this list.

Example results:
INPUT: // returns reported EC50 for input CCc1c(C#N)c(SC(C(N)=O)c2ccccc2)nc(N2CCN(CCCN)CC2)c1C#N (stereo not drawn)
OUTPUT: 1 to 31.6 µM

INPUT: Item CCc1c(C#N)c(SC(C(N)=O)c2ccccc2)nc(N(C)CCN2CCC(O)(CN)CC2)c1C#N (stereo not drawn) has what recorded EC50?
OUTPUT: 1 to 31.6 µM

INPUT: Any idea what EC50 was measured for CCc1c(C#N)c(SC(C(N)=O)c2ccccc2)nc(N2CCC(=O)N(C)CC2)c1C#N (stereo not drawn) ?
OUTPUT: < 0.316 µM

INPUT: Entry CCc1c(C#N)c(SCc2ccc(CNC(C)=O)cc2)nc(N2CCC(O)C2)c1C#N (stereo not drawn) : reported EC50 = ?
OUTPUT: > 31.6 µM

INPUT: Which EC50 reading was recorded for the molecule CCc1c(C#N)c(SCc2ccc3c(c2)C(=O)C(=O)N3)nc(N2CCCN(C)CC2)c1C#N ?
OUTPUT: > 31.6 µM

INPUT: Need EC50 of CCc1c(C#N)c(SC(C(N)=O)c2ccccc2)nc(N2CCC(O)(CN)CC2)c1C#N (stereo not drawn) [Example 243, Trifluoroacetic Acid Salt] , thanks.
OUTPUT: 0.316 to 1 µM

INPUT: May I ask what EC50 has been recorded for CCc1c(C#N)c(SC(C(N)=O)c2ccccc2)nc(N2CCc3[nH]nnc3C2)c1C#N (stereo not drawn) ?
OUTPUT: 1 to 31.6 µM

INPUT: Fill in: EC50 of CCc1c(C#N)c(SCc2ccc(NC(C)=O)cc2)nc(N(C)C)c1C#N is ___
OUTPUT: 1 to 31.6 µM

---
INPUT: // query EC50 value for entry CCc1c(C#N)c(SCc2ccc(B(O)O)cc2)nc(N2CCCN(C)CC2)c1C#N
OUTPUT: > 31.6 µM

INPUT: Form field: reported EC50 of C[C@@H](N)C(=O)NC1CCN(c2nc(SC(C(N)=O)c3ccccc3)c(C#N)c(C3CC3)c2C#N)CC1 (stereo partly drawn)
OUTPUT: 0.316 to 1 µM

INPUT: So what does the record say about EC50 for CCc1c(C#N)c(SCc2ccc(CN3CCCC3=O)cc2)nc(N2CCCN(C)CC2)c1C#N ?
OUTPUT: 1 to 31.6 µM

INPUT: Reported EC50 for CCc1c(C#N)c(SC(C(N)=O)c2ccccc2)nc(N(C)CCN2CCCCCC2)c1C#N (stereo not drawn) : what is it?
OUTPUT: < 0.316 µM

Origin of values: patent US10975056B2
